- test_target: T1, TL1A in human blood (endogenous) (human, UniProt O95150 72-251, limits assumed)
- T1 sequence (looked up): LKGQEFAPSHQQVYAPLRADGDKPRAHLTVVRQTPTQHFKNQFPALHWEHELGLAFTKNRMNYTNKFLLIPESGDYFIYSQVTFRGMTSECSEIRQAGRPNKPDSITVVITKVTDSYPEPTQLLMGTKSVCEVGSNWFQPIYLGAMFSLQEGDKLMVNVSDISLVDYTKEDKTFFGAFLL
- experiment_summary: cell-based or functional assay
measured_parameter: % Inhibition at 1 nM Ig (inhibition of interferon gamma release in human blood) (%)
Unit % implied. Number only.

// worked examples, % Inhibition at 1 nM Ig (inhibition of interferon gamma release in human blood) included
binder="A212 (antibody, human IgG1, V domains shown) VH: QVQLVQSGAEVKKPGASVKVSCKASGFDIQDTYMHWVRQRPGQGLEWIGRIDPASGHTKYDPKFQVRATITTDTSTSTAYLELSSLRSEDTAVYYCARSGGLPDVWGQGTTVTVSS VL: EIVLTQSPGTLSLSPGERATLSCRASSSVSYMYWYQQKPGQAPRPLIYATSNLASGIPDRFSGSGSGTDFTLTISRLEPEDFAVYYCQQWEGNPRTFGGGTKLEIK" recorded_number=46.8
binder="A219 (antibody, human IgG1, V domains shown) VH: QVQLVQSGAEVKKPGASVKVSCKASGFDIQDTYMHWVKQRPGQGLEWMGRIDPASGHTKYDPKFQVRVTITRDTSTSTVYLELSSLRSEDTAVYYCARSGGLPDVWGQGTTVTVSS VL: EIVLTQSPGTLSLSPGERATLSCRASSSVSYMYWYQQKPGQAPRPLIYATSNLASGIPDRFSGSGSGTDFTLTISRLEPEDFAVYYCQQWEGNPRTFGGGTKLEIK" recorded_number=59.8
binder="A217 (antibody, human IgG1, V domains shown) VH: QVQLVQSGAEVKKPGASVKVSCKASGFDIQDTYMHWVKQRPGQGLEWMGRIDPASGHTKYDPKFQVRVTITRDTSTSTVYMELSSLRSEDTAVYYCARSGGLPDVWGQGTTVTVSS VL: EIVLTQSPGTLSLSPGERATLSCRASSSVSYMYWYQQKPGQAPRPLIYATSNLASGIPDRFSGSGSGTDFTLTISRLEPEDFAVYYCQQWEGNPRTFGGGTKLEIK" recorded_number=46
binder="A213 (antibody, human IgG1, V domains shown) VH: QVQLVQSGAEVKKPGASVKVSCKASGFDIQDTYMHWVRQRPGQGLEWMGRIDPASGHTKYDPKFQVRVTITTDTSTSTVYMELSSLRSEDTAVYYCARSGGLPDVWGQGTTVTVSS VL: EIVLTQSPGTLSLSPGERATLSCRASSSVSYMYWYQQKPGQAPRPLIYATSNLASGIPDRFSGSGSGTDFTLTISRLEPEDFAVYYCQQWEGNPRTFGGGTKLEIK" recorded_number=48.6
binder="A147 (antibody, human IgG1, V domains shown) VH: QVQLVQSGAEVKKPGASVKVSCKASGFDIQDTYMHWVKQRPGQGLEWMGRIEPASGHIKYDPKFQGRVTMTRDTSTSTVYMELSSLRSEDTAVYYCARSGGLPDWWGQGTTVTVSS VL: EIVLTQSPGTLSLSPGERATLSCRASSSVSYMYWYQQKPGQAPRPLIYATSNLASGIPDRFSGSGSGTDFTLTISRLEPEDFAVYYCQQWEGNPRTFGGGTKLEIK" recorded_number=51.3

Turning to the following binder.
What the record says about A220 (antibody, human IgG1, V domains shown) VH: QVQLVQSGAEVKKPGASVKVSCKASGFDIQDTYMHWVKQRPGQGLEWMGRIDPASGHTKYDPKFQVRVTMTRDTSTSTAYLELSSLRSEDTAVYYCARSGGLPDVWGQGTTVTVSS VL: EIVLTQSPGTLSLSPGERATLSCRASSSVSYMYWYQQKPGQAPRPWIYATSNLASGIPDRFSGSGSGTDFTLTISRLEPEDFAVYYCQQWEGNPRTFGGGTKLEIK : % Inhibition at 1 nM Ig (inhibition of interferon gamma release in human blood) is 36.9

All values here come from patent US20260066079A1.
